Molecular target: human CD33 on primary human dendritic cells (human, UniProt P20138 18-364)
Sequence (P20138 18-364): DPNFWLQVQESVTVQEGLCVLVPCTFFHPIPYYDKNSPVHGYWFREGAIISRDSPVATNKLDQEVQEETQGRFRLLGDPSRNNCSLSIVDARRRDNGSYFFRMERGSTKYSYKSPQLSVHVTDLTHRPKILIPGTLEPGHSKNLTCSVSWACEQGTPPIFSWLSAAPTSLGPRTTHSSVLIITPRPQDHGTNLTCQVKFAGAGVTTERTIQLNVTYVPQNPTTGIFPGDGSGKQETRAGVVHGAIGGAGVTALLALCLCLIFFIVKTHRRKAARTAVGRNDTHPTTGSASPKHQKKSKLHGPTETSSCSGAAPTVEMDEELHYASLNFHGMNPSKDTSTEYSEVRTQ
Experiment: cell-based or functional assay
quantity.kind: Fold increase in potency compared to 6C7H5
Field: value (include unit after the number)

Qu. Quick one: Fold increase in potency compared to 6C7H5 for anti-CD33 antibody 6C7H29 (antibody, V domains shown, VH/VL only) VH: EVQLVESGGGLVQPGGSLRLSCAGSGFTFSAYSMNWVRQAPGKGLEWVAEIRLKSNNYVTNYAASVKGRFTISRDDSKNSVYLQMNSLKTEDTGVYYCTRAGYYVPFAYWGQGTLVTVSS VL: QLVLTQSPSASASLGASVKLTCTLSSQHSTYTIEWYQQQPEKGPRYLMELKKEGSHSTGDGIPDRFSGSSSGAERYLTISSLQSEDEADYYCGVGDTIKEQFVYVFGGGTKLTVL ?
Ans. 0.3 fold

Qu. Now consider anti-CD33 antibody 6C7H21 (antibody, V domains shown, VH/VL only) VH: EVQLVESGGGLVQPGGSLRLSCAGSGFTFSNYQMNWVRQAPGKGLEWVAEIRLKSNNYVTNYAASVKGRFTISRDDSKNSVYLQMNSLKTEDTGVYYCTRAGYYVPFAYWGQGTLVTVSS VL: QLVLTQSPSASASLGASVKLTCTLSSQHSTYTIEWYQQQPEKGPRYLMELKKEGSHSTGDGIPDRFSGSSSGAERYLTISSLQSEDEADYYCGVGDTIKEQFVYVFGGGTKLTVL and answer again.
Ans. 1.2 fold

Qu. Can you handle anti-CD33 antibody 6C7H27 (antibody, V domains shown, VH/VL only) VH: EVQLVESGGGLVQPGGSLRLSCAGSGFTFSDYTMNWVRQAPGKGLEWVAEIRLKSNNYVTNYAASVKGRFTISRDDSKNSVYLQMNSLKTEDTGVYYCTRAGYYVPFAYWGQGTLVTVSS VL: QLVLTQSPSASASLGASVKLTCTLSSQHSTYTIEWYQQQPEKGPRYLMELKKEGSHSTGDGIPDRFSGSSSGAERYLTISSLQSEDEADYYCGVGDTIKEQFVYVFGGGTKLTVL next?
Ans. 0.03 fold
